assay_method_text: Toxicity liver stage against HepG2, at 10uM
Assay type: cell-based
Design: test concentration 10 uM, cell line HepG2-A16-CD81EGFP
assay_context: human, HepG2-A16-CD81EGFP cells; read-out: INHIBITION
List of cytotoxicity at 10 µM values.

| compound | cytotoxicity at 10 µM |
| --- | --- |
| CN(Cc1nnc(-c2ccco2)o1)CC1CCCN1c1cccnn1 (stereo unspecified) | 5.68% |
| CCN1C(=O)[C@H]2CN(Cc3cccnc3)C[C@H]2C12CCN(C(C)=O)CC2 | -1.8% |
| Cc1nccc(C(=O)NC(CN2CCCC2=O)c2ccccc2)n1 (stereo unspecified) | 8.01% |
| CSCC(=O)Nc1ncn(Cc2cccc(Br)c2)n1 | -12% |
| O=C(NCCN1CCOCC1)c1ccn(-c2ccccc2F)n1 | 7.44% |
| Cc1ncc2c(n1)CN(Cc1ncc(C(C)(C)C)o1)CC2 | 0.96% |
| CCO[C@H]1CC[C@H]2[C@H]1OCCN2C(=O)CC1=CCCCC1 | 1.75% |
| Cc1cc(C(=O)NCC(F)(F)F)c2c(C3CCCN3)noc2n1 (stereo unspecified) | 6% |
| COC(=O)C(NC(=O)CCOC(C)C)c1cc(F)ccc1F (stereo unspecified) | -4.11% |
| CNc1cncc(C2CCCN2C(=O)c2ccc3oc(=O)n(C)c3c2)n1 (stereo unspecified) | -1.57% |
| Cc1csc(C2CCCCN2C(=O)CN(C)Cc2ccccc2)n1 (stereo unspecified) | 2.62% |
| COc1cc(CNCc2c(C)nn(C)c2N(C)C)ccn1 | -9.48% |
| Cc1cc(N2CCCC2c2cc(Nc3cnccn3)nc(C)n2)ncn1 (stereo unspecified) | -14% |
| COC[C@@H]1CC[C@H]2[C@H](CCN2C(=O)c2ccncc2F)O1 | -8.82% |
| COCC(=O)Nc1ccc(Sc2nncn2C)c(Cl)c1 | -5.48% |
| CC1CCc2nn(CCNC(=O)Cc3ccc(F)cc3)c(=O)cc2C1 (stereo unspecified) | 7.61% |
| CC(=O)N(C)Cc1nn(C)c2c1CN(Cc1ccsc1)C2 | -134% |
| COc1c(Br)c(C(=O)NC2CCCC2)nn1C | 6.44% |
| COc1cccc(-c2n[nH]cc2C(=O)NC(C)CC(=O)O)c1 (stereo unspecified) | -8.91% |
| COc1ccc(S(=O)(=O)NCCCc2nnc3nc(C)cc(C)n23)cc1 | 5.05% |
| Cc1nc(CN2CCCC(NCCOc3ccccc3)C2)no1 (stereo unspecified) | -7.98% |
| CC(SCC(=O)NC(N)=O)c1ccc(Cl)cc1 (stereo unspecified) | 4.86% |
| Cc1ccoc1C(=O)N1CCO[C@H]2[C@H](OCCN(C)C)CC[C@@H]21 | -5.88% |
| COCCN1C[C@@H](C(=O)O)[C@H](c2ccccc2C)C1 | 3% |
| CCC(CO)N(Cc1ccco1)C(=O)c1ccc(F)cc1Cl (stereo unspecified) | -0.247% |
| CC(C)[C@@H]1CN(C(=O)c2ccsc2)C[C@H]1C(=O)O | 12.8% |
| C1CCC(c2nn3c(C4CCCO4)nnc3s2)C1 (stereo unspecified) | 8.51% |
| O=C(C1CCCC1)N1CCC(c2ccnc(Nc3cnccn3)n2)C1 (stereo unspecified) | -24.6% |
| O=C(Cc1cnn(-c2ccccc2)n1)NC(C1CC1)C1CC1 | -9.66% |
| N#Cc1cc(Br)ccc1NC1CCN(CC(N)=O)CC1 | 5.23% |
| O=C(c1ccc(F)cc1F)N1CC[C@H](O)[C@@H](N2CCOCC2)CC1 | 2.62% |
| CCc1ncc(C(=O)NCCNc2ccncc2)s1 | -9.7% |
| Cc1noc([C@H]2COC[C@H]3CN(C(=O)Cc4ccc(F)cc4)C[C@H]32)n1 | -21.1% |
| c1ccc(-c2nnn3c2COC(CNCc2ccccn2)C3)cc1 (stereo unspecified) | 0.595% |
| COc1cccc(-c2n[nH]c3c2CN(C(=O)C2=C(C)OCCO2)CC3)c1 | 3.28% |
| O=c1[nH]c(N2CC(O)C2)nc2c1cnn2-c1ccccc1 | 1.92% |
| COc1cc(OC)cc(-c2cccc3c2OC(CN)C3)c1 (stereo unspecified) | -53% |
| Cc1cc(NC(=O)N2CCCC2C(=O)NC2CC2)c2ncccc2c1 (stereo unspecified) | -2.43% |
| CCOC(=O)[C@H]1[C@@H](O)C(=O)N(C)C12CCN(C(=O)OCC)CC2 | -7.83% |
| Cn1ccnc1C(=O)N[C@@H]1CN(Cc2ccoc2)[C@@H]2CCCO[C@@H]21 | -99.9% |
| Fc1ccc(OC2CCN(Cc3nnc(-c4ccco4)o3)CC2)cc1 | -2.56% |
| CC(C)Cc1nnc2sc(-c3cc(C(C)C)n[nH]3)nn12 | 8.08% |
| N#Cc1ccc(C(=O)N(C2CC2)C2CC(=O)NC2=O)cc1 (stereo unspecified) | -4.64% |
| COC(=O)c1ccc(N2CCN(CCN3CCOCC3)C(C)C2)cc1 (stereo unspecified) | -13.6% |
| CC(O)CN1CCN(C(=O)CN(C)c2cnccn2)CC1 (stereo unspecified) | 2.53% |
| CC(=O)N1CC2(CCN(S(=O)(=O)N(C)C)CC2)C2(CCNC2=O)C1 (stereo unspecified) | -6.9% |

* * *

assay_method_text: Toxicity liver stage against HepG2, at 10uM
Assay type: cell-based
Design: test concentration 10 uM, cell line HepG2-A16-CD81EGFP
assay_context: human, HepG2-A16-CD81EGFP cells; read-out: INHIBITION

| compound | result_unit | cytotoxicity at 10 µM |
| --- | --- | --- |
| Cc1cccc(-c2nc(C)nn2CN2CCN(c3ncccn3)CC2)c1 | % | -6.45 |
| Cc1c(C(=O)N2CCCC(n3cncn3)C2)cnn1C (stereo unspecified) | % | -9.84 |
| CCc1nnsc1C(=O)NC1CCN(c2ccccn2)CC1 | % | -2.49 |
| Cc1cc(C)c(CNC(=O)N(C)Cc2nnc3n2CCC3)c(=O)[nH]1 | % | -10.5 |
| CCC(c1nc(C(C)C)nn1-c1ccncc1C)n1cccn1 (stereo unspecified) | % | -13.9 |
| CCOc1ccc2[nH]c(=O)c(CN3CCCC(CO)(CO)C3)cc2c1 | % | 22.3 |

* * *

Overview of reported cytotoxicity at 10 µM across a group of compounds:
assay_method_text: Toxicity liver stage against HepG2, at 10uM
Assay type: cell-based
Design: test concentration 10 uM, cell line HepG2-A16-CD81EGFP
assay_context: human, HepG2-A16-CD81EGFP cells; read-out: INHIBITION
measure: cytotoxicity at 10 µM (%)

| compound | measure | assay_value |
| --- | --- | --- |
| Cc1nc(C)c(CC(=O)NCc2ccccc2F)s1 | cytotoxicity at 10 µM | 6.23 |
| COc1ccccc1S(=O)(=O)Nc1ccc2c(C(=O)O)c[nH]c2c1 | cytotoxicity at 10 µM | -11.1 |
| CCCc1nnc(NCCc2noc(C3CCC3)n2)o1 | cytotoxicity at 10 µM | -8.22 |
| COc1ccc(C2=Nn3c(CN)nnc3-c3ccccc3C2)cc1 | cytotoxicity at 10 µM | 8.55 |
| Fc1ccc(CN2CCCC2c2cncc(-n3ccnc3)n2)cc1 (configuration not stated) | cytotoxicity at 10 µM | 5.82 |
| COCC1CN(S(=O)(=O)N(C)C)Cc2ncn(CC3CC3)c21 (configuration not stated) | cytotoxicity at 10 µM | 8.77 |
| Cc1ccc2c(c1)CN(C(=O)c1cccs1)C(CN(C)C)CO2 (configuration not stated) | cytotoxicity at 10 µM | -16.5 |
| CN(CC(=O)Nc1cc(-n2nnnc2C2CC2)ccc1F)C1CCC1 | cytotoxicity at 10 µM | 8.83 |
| Cc1ccc2c(c1)SCC(=O)N2CC(=O)N1CCC[C@H]1c1nc(C)no1 | cytotoxicity at 10 µM | 7.95 |
| O=C(CCCNc1ncccn1)N1CCCC(n2ccnc2)C1 (configuration not stated) | cytotoxicity at 10 µM | -15.1 |
| COCC(Nc1ncnc2sc(C)c(C)c12)c1ccnn1C (configuration not stated) | cytotoxicity at 10 µM | -4.53 |
| CCc1nnsc1C(=O)NC(CC(C)C)C(=O)OC (configuration not stated) | cytotoxicity at 10 µM | 11.4 |

* * *

assay_method_text: Toxicity liver stage against HepG2, at 10uM
Type: cell-based
Parameters: test concentration 10 uM, cell line HepG2-A16-CD81EGFP
assay_context: human, HepG2-A16-CD81EGFP cells; read-out: INHIBITION
measure: cytotoxicity at 10 µM (%)

| molecule | measure | result_unit | assay_value |
| --- | --- | --- | --- |
| COc1ccccc1CN1C(=O)O[C@@H]2CN(c3nc(C)cc(C)n3)C[C@@H]21 | cytotoxicity at 10 µM | % | 0.819 |
| NC(=O)C(NC1CCN(CC2CCCCC2)CC1)c1ccccc1 (centres undefined) | cytotoxicity at 10 µM | % | -4.57 |
| c1cncc(CN2CCc3ncnc(NCCc4c[nH]cn4)c3CC2)c1 | cytotoxicity at 10 µM | % | 2.57 |
| N#Cc1ccc(N2CCN(C(=O)c3cc(C4CC4)[nH]n3)CC2)c(F)c1 | cytotoxicity at 10 µM | % | 1.94 |
| Cc1cccc(-n2cc(C(=O)N3CCCC(n4cccn4)C3)nn2)c1 (centres undefined) | cytotoxicity at 10 µM | % | -0.168 |
| O=C(C1CCCN(Cc2cccc(F)c2)C1)N1CCc2sccc2C1 (centres undefined) | cytotoxicity at 10 µM | % | -0.23 |
| Cc1ccc(C(=O)N2CCCCC2CNC(N)=O)s1 (centres undefined) | cytotoxicity at 10 µM | % | -0.519 |
| COCc1ccccc1C(=O)OCc1noc(C)n1 | cytotoxicity at 10 µM | % | 7.01 |
| Cc1cc(C)n(CC2CN(Cc3ccc4c(c3)OCCO4)CCO2)n1 (centres undefined) | cytotoxicity at 10 µM | % | -22.3 |
| Cn1c(C(F)(F)F)nn(CCNC(=O)CSCc2ccccc2)c1=O | cytotoxicity at 10 µM | % | -24 |
| CNc1cc2c(nn1)CCN(C(=O)c1ccc3c(c1)OCO3)C2 | cytotoxicity at 10 µM | % | 6.85 |
| O=C(Nc1ccc2c(c1)OCCO2)N1CCCN(Cc2cccs2)CC1 | cytotoxicity at 10 µM | % | 3.45 |
| Cn1cc(C2CC(=O)NC23CCN(Cc2cccc(F)c2)CC3)cn1 (centres undefined) | cytotoxicity at 10 µM | % | 7.13 |
| CCCn1nnc2c(sc3nc(N4CCOCC4)c4c(c32)CCC4)c1=O | cytotoxicity at 10 µM | % | 1.74 |
| O=S(=O)(Cc1ccccc1)NCC1CCN(c2cnccn2)CC1 | cytotoxicity at 10 µM | % | 14.4 |
| O=C(Nc1cc(C(F)(F)F)c[nH]c1=O)N1CCCSCC1 | cytotoxicity at 10 µM | % | -5.77 |
| O=C(NCCCN1CCN(c2ncccn2)CC1)Nc1ccccn1 | cytotoxicity at 10 µM | % | -7.48 |
| Cn1cc(Cl)cc1C(=O)N1CCN(Cc2ccsc2)CC1 | cytotoxicity at 10 µM | % | -2.86 |
| CC(C)CCC(C)NC(=O)Nc1ccccn1 (centres undefined) | cytotoxicity at 10 µM | % | 5.28 |
| CC(C(=O)N1CCC(c2[nH]ncc2-c2ccccc2)CC1)n1cncn1 (centres undefined) | cytotoxicity at 10 µM | % | -0.815 |
| CN(C)CC(=O)N1CC[C@H]2OCC[C@@]2(COCC2CC2)C1 | cytotoxicity at 10 µM | % | 0.165 |
| O=C(NC[C@]12COC[C@H]1CN(Cc1cccs1)C2)c1ccsc1 | cytotoxicity at 10 µM | % | -0.629 |
| C=C(C)CN(CC)Cc1nc(C(C)(C)C)no1 | cytotoxicity at 10 µM | % | -4.57 |
| Cc1nc(C(NC(=O)CC(F)(F)F)c2ccc(Cl)cc2)no1 (centres undefined) | cytotoxicity at 10 µM | % | 9.83 |

Origin of values: ChEMBL document CHEMBL4513216
